EXPERIMENT_NOTES: protein stability index of a GFP-peptide fusion (yeast GPS) (PSI 1-4); higher = more stable; sorted into four equal gates, so the index is relative within each strain
ASSAY_SETUP: san1∆
Reported protein stability index values follow for various sequences
Number, no unit, nothing else.

Example entries and their recorded answers appear below.
SEQUENCE_INPUT | protein stability index
AKKLPNGNWEVGVHIAD [DIS3] | 2.51
DYVNKTNSHLPAGKQVE [FAS1] | 3.08
ESWANQLTVCGAIIGWT [FAS2] | 1.2
IQTKEQVSINSNKILVY [YIL149C/MLP2] | 1.85

Q. Tell me the measured protein stability index of SAESWGTGRAVARIPRV [RPL4A] , please.
A. 2.65

Q. Tell me the measured protein stability index of PSIPLVIIRRLKTRDWI [POP1] , please.
A. 2.86

Q. Tell me the measured protein stability index of SIHAHGSTDVGYYLSLG [PUP1] , please.
A. 2.91

----------
EXPERIMENT_NOTES: protein stability index of a GFP-peptide fusion (yeast GPS) (PSI 1-4); higher = more stable; sorted into four equal gates, so the index is relative within each strain
ASSAY_SETUP: san1∆
Reported protein stability index values follow for various sequences
Number, no unit, nothing else.

SEQUENCE_INPUT | protein stability index
GVEEEEELKDSEINEIL [SNF2] | 2.31
SNFADSADYEILYEIRA [YDL116W/NUP84] | 2.42
ETKADGILLETISVPQI [RRP6] | 2.51
SPELSLQRHLSLGIRPC [RRP43] | 2.73
MSDFQKEKVEEQEQQQQ [RPS20] | 3.16
GINSPLSSVALRSDFYI [YJL039C/NUP192] | 2.96
AAMVPFIKFKLIQQVPP [CDC53] | 2.17
SSTGNANTSNNLFGATA [YJL041W/NSP1] | 3.3

Q. Tell me the measured protein stability index of ELMRIISRNGDTSYKID [SMC1] , please.
A. 2.99

----------
EXPERIMENT_NOTES: protein stability index of a GFP-peptide fusion (yeast GPS) (PSI 1-4); higher = more stable; sorted into four equal gates, so the index is relative within each strain
ASSAY_SETUP: pdr5∆
VALUE_TYPE: protein stability index
Number, no unit, nothing else.

Example entries and their recorded answers appear below.
SEQUENCE_INPUT | VALUE_TYPE | ASSAY_VALUE
LIIRNDSLSGAVIAAIM [RPT3] | protein stability index | 3.09
LISKPAKKNNFIEDLAP [UBP6] | protein stability index | 2.73
YNALFQQNIKFRRDFLL [YJL039C/NUP192] | protein stability index | 2.02
ERKLKFSNRFLPVASPF [FAS1] | protein stability index | 3.16
FDTSIKLDIISDPESER [RPN14] | protein stability index | 2.94
KTSKRTKRWYKNAGLGF [RPS11A] | protein stability index | 2.84
EVAIRDVNLDVRIHSIQ [IRR1] | protein stability index | 2.1
GFGILEDGMIIDVNLNF [RRP40] | protein stability index | 3.21
KKLESQESLVKLFTTNE [RPN5] | protein stability index | 3.12
RIENPEKYAAAAPAATS [RPP0] | protein stability index | 3.22

Q. Tell me the measured protein stability index of SFTSATERHIQVGDGLE [PRE7] , please.
A. 2.56

Q. Tell me the measured protein stability index of SKISQMAQNKTHIPQTN [YLR018C/POM34] , please.
A. 2.21

----------
EXPERIMENT_NOTES: protein stability index of a GFP-peptide fusion (yeast GPS) (PSI 1-4); higher = more stable; sorted into four equal gates, so the index is relative within each strain
ASSAY_SETUP: pdr5∆
VALUE_TYPE: protein stability index
Number, no unit, nothing else.

Example entries and their recorded answers appear below.
SEQUENCE_INPUT | ASSAY_VALUE
RMKSITSTSQKIPSASI [SNF5] | 3.18
MQKHGYIGEFEYIDDHR [RPS22A] | 3.19

Q. Tell me the measured protein stability index of VGDEFKGYVFKISGGND [RPS6A] , please.
A. 3.49

Q. Tell me the measured protein stability index of VFLLLQAYFSRLELPVD [BRR2] , please.
A. 1.31

Q. Tell me the measured protein stability index of PVRALIVQAKEPNLAAQ [ECM29] , please.
A. 2.6

Q. Tell me the measured protein stability index of LIPASDLSWSKQTDTGI [PRP8] , please.
A. 2.68

Q. Tell me the measured protein stability index of PDVKSLVQLSTMETKTL [SIR4] , please.
A. 2.83

Q. Tell me the measured protein stability index of SGKRKPTKAAQRARDQD [GAL11] , please.
A. 3.65

Q. Tell me the measured protein stability index of IYEVDITVHAPLLPIVE [SNU114] , please.
A. 2.29

----------
EXPERIMENT_NOTES: protein stability index of a GFP-peptide fusion (yeast GPS) (PSI 1-4); higher = more stable; sorted into four equal gates, so the index is relative within each strain
ASSAY_SETUP: san1∆
Decision: protein stability index compared against 3; not below it gives TRUE, below it gives FALSE.

SEQUENCE_INPUT | DISCRETE_LABEL
LYDLRASYAKIEIKISD [SNU114] | FALSE
NDEGVWDLVDERTKQRT [PRP8] | TRUE
KRPYESSRLDAELKLAG [RPS9A] | FALSE
SAKGPEIIPLQDYYIIG [MED6] | TRUE
QEETVVEQTAEVTIEDA [RPS12] | TRUE

From here, focus on the item given below.
Q. Confirm if protein stability index reported for the sequence RSNGSVASLSKRNKLLT [YJL039C/NUP192] is 3 or above.
A. FALSE

----------
EXPERIMENT_NOTES: protein stability index of a GFP-peptide fusion (yeast GPS) (PSI 1-4); higher = more stable; sorted into four equal gates, so the index is relative within each strain
ASSAY_SETUP: pdr5∆
VALUE_TYPE: protein stability index
Number, no unit, nothing else.

SEQUENCE_INPUT | protein stability index
KGPAIDELSSKELVECH [NNF1] | 3.13
LYDLRASYAKIEIKISD [SNU114] | 2.72
LKEQELVLYDAENDVIE [BRR2] | 2.9
TLLREVVFTRLVQRCWQ [CSN12] | 1.24
SVWKPIAAIIGRLNTLV [IRR1] | 1.56

Q. Tell me the measured protein stability index of LVALSNEPAARLGSEAD [FAS2] , please.
A. 3.37

Q. Tell me the measured protein stability index of RRMGILKKILDQCKKQR [RPO31] , please.
A. 1.7

Q. Tell me the measured protein stability index of FSDKVNALWILVDLVSH [ITC1] , please.
A. 1.23

Q. Tell me the measured protein stability index of SKPAFSFGAKSDEKKDG [YJL041W/NSP1] , please.
A. 2.97

Q. Tell me the measured protein stability index of KSVLGDGKKHSVFYTIL [RPO31] , please.
A. 2.42

----------
Reported protein stability index values follow for various sequences
EXPERIMENT_NOTES: protein stability index of a GFP-peptide fusion (yeast GPS) (PSI 1-4); higher = more stable; sorted into four equal gates, so the index is relative within each strain
ASSAY_SETUP: san1∆

Example entries and their recorded answers appear below.
SEQUENCE_INPUT | protein stability index
LKTRYVGRQDPKKHLSE [RPN11] | 3.3
DDIFIPQNMLFEGCYYT [RPC25] | 2.43
ERKLKFSNRFLPVASPF [FAS1] | 2.91
MSEQQWREQLRNRDIAL [ROX3] | 3
NTLIPESSLTISLYFND [ECM29] | 1.99

Q. Tell me the measured protein stability index of VTHDCYRVTLESILQMN [RPC34] , please.
A. 2.66

Q. Tell me the measured protein stability index of ANFIFSPASGIVDKYIG [RPT4] , please.
A. 1.93

Q. Tell me the measured protein stability index of LNVAEIITSGRDTREVL [ARP9] , please.
A. 3.44

Q. Tell me the measured protein stability index of IQSAESIKSQKEEISDQ [SWI3] , please.
A. 2.58

Q. Tell me the measured protein stability index of FLSKPSKALYPDYYMII [SNF2] , please.
A. 2.19

Q. Tell me the measured protein stability index of LGSGSNVDVCVMEIGKD [PUP1] , please.
A. 3.4

Q. Tell me the measured protein stability index of DDLPYYVNALADVLYKT [QCR2] , please.
A. 2.63

Q. Tell me the measured protein stability index of TIITDCAFLLTKIKDAE [YJL039C/NUP192] , please.
A. 2.06

Q. Tell me the measured protein stability index of LLENPNCFFDVIVPQIV [DIS3] , please.
A. 2.99

Q. Tell me the measured protein stability index of FAFWNLLVKFIKFFWNN [YLR018C/POM34] , please.
A. 1.7

Q. Tell me the measured protein stability index of LADILKANISLETLEHN [RPO21] , please.
A. 3.11
